From: ChEMBL document CHEMBL1909294

The following molecules are listed with their measured HepSE_hepatitis values.
Test system: Hepatotoxicity
protocolConditions: Liver
# respond with the number and nothing more

* CC(=O)[O-].[Na+] [SODIUM ACETATE] | 0
* COc1cc(Br)c(C[N+]2(CCOCCC3CCC4CC3C4(C)C)CCOCC2)cc1OC.[Br-] (centres undefined) [PINAVERIUM BROMIDE] | 0
* O=C(O)COCCN1CCN(C(c2ccccc2)c2ccc(Cl)cc2)CC1 (centres undefined) | 1

Item COc1cc(Cc2cnc(N)nc2N)cc(OC)c1OC has what recorded HepSE_hepatitis?
0

---

The following compounds are listed with their measured HepSE_cholelithiasis values.
System: Hepatotoxicity
# respond with the number and nothing more

- CN1CCN(C2=Nc3ccccc3Oc3ccc(Cl)cc32)CC1: 0
- CCC[C@H](N[C@@H](C)C(=O)N1[C@H](C(=O)O)C[C@@H]2CCCC[C@@H]21)C(=O)OCC: 0
- Cc1onc(-c2ccccc2)c1-c1ccc(S(N)(=O)=O)cc1: 1
- COc1cc(C)c(/C=C/C(C)=C/C=C/C(C)=C/C(=O)O)c(C)c1C: 0

Could you now look at the following compound, please?
Item Clc1ccc(COC(Cn2ccnc2)c2ccc(Cl)cc2Cl)c(Cl)c1 (stereo not given) has what recorded HepSE_cholelithiasis?
0

---

Tested on: Hepatotoxicity
The following molecules are listed with their measured HepSE_Combined Scores values.
# respond with the number and nothing more

Notebook: pull reported HepSE_Combined Scores for Hepatotoxicity, entry C[C@H]1O[C@H](O[C@H]2[C@H](O)[C@@H](O)[C@@H](O[C@H]3[C@H](O)[C@@H](O)C(O)O[C@@H]3CO)O[C@@H]2CO)[C@H](O)[C@@H](O)[C@@H]1N[C@H]1C=C(CO)[C@@H](O)[C@H](O)[C@H]1O (some centres undefined)
3

Notebook: pull reported HepSE_Combined Scores for Hepatotoxicity, entry C[C@]12CC[C@@H]3c4ccc(O)cc4C[C@@H](CCCCCCCCC[S+]([O-])CCCC(F)(F)C(F)(F)F)[C@H]3[C@@H]1CC[C@@H]2O (some centres undefined)
0

Notebook: pull reported HepSE_Combined Scores for Hepatotoxicity, entry [N]=O [NITRIC OXIDE]
0

Notebook: pull reported HepSE_Combined Scores for Hepatotoxicity, entry NC(=O)c1cnccn1 [PYRAZINAMIDE]
0

Notebook: pull reported HepSE_Combined Scores for Hepatotoxicity, entry CC(C)CN(C[C@@H](O)[C@H](Cc1ccccc1)NC(=O)O[C@H]1CCOC1)S(=O)(=O)c1ccc(N)cc1
0

Notebook: pull reported HepSE_Combined Scores for Hepatotoxicity, entry Fc1ccc([C@@H]2CCNC[C@H]2COc2ccc3c(c2)OCO3)cc1
8

Notebook: pull reported HepSE_Combined Scores for Hepatotoxicity, entry C=CC[N+]1([C@H]2C[C@H]3[C@@H]4CC[C@H]5C[C@H](O)[C@@H](N6CCOCC6)C[C@]5(C)[C@H]4CC[C@]3(C)[C@H]2OC(C)=O)CCCC1
0

Notebook: pull reported HepSE_Combined Scores for Hepatotoxicity, entry O=C1c2c(O)ccc(O)c2C(=O)c2c(NCCNCCO)ccc(NCCNCCO)c21
2

Notebook: pull reported HepSE_Combined Scores for Hepatotoxicity, entry COc1ccc(-c2ccc3cc(C(=O)O)ccc3c2)cc1C12CC3CC(CC(C3)C1)C2
1

Notebook: pull reported HepSE_Combined Scores for Hepatotoxicity, entry COc1ccccc1OCC(O)COC(N)=O (centres undefined)
1

Notebook: pull reported HepSE_Combined Scores for Hepatotoxicity, entry CCOC(=O)[C@H](CCc1ccccc1)N[C@H]1CCc2ccccc2N(CC(=O)O)C1=O
2

---

// values below are HepSE_cirrhosis; system is Hepatotoxicity
# respond with the number and nothing more

Here are 5 compounds together with their reported answers.
* CCN1CCN(C(=O)N[C@@H](C(=O)N[C@@H]2C(=O)N3C(C(=O)O)=C(CSc4nnnn4C)CS[C@H]23)c2ccc(O)cc2)C(=O)C1=O [CEFOPERAZONE] | 0
* CNCC[C@@H](Oc1ccccc1C)c1ccccc1 [ATOMOXETINE] | 0
* CN(Cc1cnc2nc(N)nc(N)c2n1)c1ccc(C(=O)N[C@@H](CCC(=O)O)C(=O)O)cc1 [METHOTREXATE] | 1
* CO/N=C(\C(=O)N[C@@H]1C(=O)N2C(C(=O)[O-])=C(C[N+]3(C)CCCC3)CS[C@H]12)c1csc(N)n1 | 0
* CCCCc1nc(Cl)c(CO)n1Cc1ccc(-c2ccccc2-c2nn[nH]n2)cc1 [LOSARTAN] | 0

Notebook: pull reported HepSE_cirrhosis for Hepatotoxicity, entry c1cnc2cc3c(cc2n1)[C@@H]1CNC[C@H]3C1 [VARENICLINE]
0

---

// values below are HepSE_liver fatty; system is Hepatotoxicity
# respond with the number and nothing more

Here are 3 molecules together with their reported answers.
- CCc1c2c(nc3ccc(OC(=O)N4CCC(N5CCCCC5)CC4)cc13)-c1cc3c(c(=O)n1C2)COC(=O)[C@]3(O)CC [IRINOTECAN]: 0
- CCNC(=O)CCC/C=C\C[C@@H]1[C@@H](/C=C/[C@@H](O)CCc2ccccc2)[C@H](O)C[C@@H]1O [BIMATOPROST]: 0
- Clc1ccc(C(c2ccccc2Cl)C(Cl)Cl)cc1 (centres undefined) [MITOTANE]: 0

Could you now look at the following molecule, please?
Item CC[C@@H](CO)NC(=O)[C@@H]1C=C2c3cccc4c3c(cn4C)C[C@H]2N(C)C1 [METHYSERGIDE] has what recorded HepSE_liver fatty?
0

---

// values below are HepSE_liver disease; system is Hepatotoxicity
# respond with the number and nothing more

Here are 4 compounds together with their reported answers.
• NS(=O)(=O)c1cc2c(cc1C(F)(F)F)NCNS2(=O)=O [HYDROFLUMETHIAZIDE] = 0
• COc1c2occc2cc2ccc(=O)oc12 = 0
• CN(C)CCOc1ccc(/C(=C(/CCCl)c2ccccc2)c2ccccc2)cc1 = 0
• COc1ccc(CC2c3cc(OC)c(OC)cc3CC[N+]2(C)CCC(=O)OCCCCCOC(=O)CC[N+]2(C)CCc3cc(OC)c(OC)cc3C2Cc2ccc(OC)c(OC)c2)cc1OC (configuration not stated) = 0

Notebook: pull reported HepSE_liver disease for Hepatotoxicity, entry Clc1ccc(C(c2ccccc2Cl)C(Cl)Cl)cc1 (configuration not stated)
0

Notebook: pull reported HepSE_liver disease for Hepatotoxicity, entry CCC1(C)CC(=O)NC1=O (configuration not stated) [ETHOSUXIMIDE]
0

Notebook: pull reported HepSE_liver disease for Hepatotoxicity, entry FCOC(C(F)(F)F)C(F)(F)F
0

Notebook: pull reported HepSE_liver disease for Hepatotoxicity, entry CC(=O)NS(=O)(=O)c1ccc(N)cc1 [SULFACETAMIDE]
0

Notebook: pull reported HepSE_liver disease for Hepatotoxicity, entry CC(=O)[C@@]1(O)CC[C@H]2[C@@H]3C=C(Cl)C4=CC(=O)[C@@H]5C[C@@H]5[C@]4(C)[C@H]3CC[C@@]21C
0

Notebook: pull reported HepSE_liver disease for Hepatotoxicity, entry NC12CC3CC(CC(C3)C1)C2
0

Notebook: pull reported HepSE_liver disease for Hepatotoxicity, entry O=C(OOC(=O)c1ccccc1)c1ccccc1 [BENZOYL PEROXIDE]
0

Notebook: pull reported HepSE_liver disease for Hepatotoxicity, entry Cc1nnc(SCC2=C(C(=O)O)N3C(=O)[C@@H](NC(=O)Cn4cnnn4)[C@H]3SC2)s1
0

Notebook: pull reported HepSE_liver disease for Hepatotoxicity, entry CN1C[C@H](C(=O)N[C@]2(C)O[C@@]3(O)[C@@H]4CCCN4C(=O)[C@H](Cc4ccccc4)N3C2=O)C=C2c3cccc4[nH]cc(c34)C[C@H]21
0

Notebook: pull reported HepSE_liver disease for Hepatotoxicity, entry CC(C)OC(=O)CCC/C=C\C[C@@H]1[C@@H](/C=C/[C@@H](O)COc2cccc(C(F)(F)F)c2)[C@H](O)C[C@@H]1O
0

Notebook: pull reported HepSE_liver disease for Hepatotoxicity, entry C[C@H]1c2cccc(O)c2C(=O)C2=C(O)[C@]3(O)C(=O)C(C(N)=O)=C(O)[C@@H](N(C)C)[C@@H]3[C@@H](O)[C@@H]21.O
0

Notebook: pull reported HepSE_liver disease for Hepatotoxicity, entry O=C1CC2(CCCC2)CC(=O)N1CCCCN1CCN(c2ncccn2)CC1
0

Notebook: pull reported HepSE_liver disease for Hepatotoxicity, entry COCCc1ccc(OCC(O)CNC(C)C)cc1 (configuration not stated)
0

---

// values below are HepSE_hepatitis; system is Hepatotoxicity
*1 amine or outer side, *2 acyl side, *3 side chain or, on linkers, in order; H or OH if unused. Where a SMILES comes first, the peptide text is derived from it. Bridges are numbered along the chain shown (N, C = ends). [ ]: non-standard residue; d: D form. The star is where a group is joined. hTyr(3S-OH,4S-OH,3'-OSO3H) = N[C@H](C(=O)O)[C@H](O)[C@@H](O)c1ccc(O)c(OS(=O)(=O)O)c1; Orn(4R-OH,5R-OH) = O=C([C@H](C[C@@H](O)[C@@H](O)N[*:3])N[*:1])[*:2]; Pro(3S-OH,4S-Me) = C[C@H]1CN[C@H](C(=O)O)[C@H]1O; X1 = CCCCCOc1ccc(-c2cc(-c3ccc(C(=O)*)cc3)no2)cc1; Gln(3R-OH) = NC(=O)C[C@@H](O)[C@H](N)C(=O)O; Hyp = O=C(O)[C@@H]1C[C@@H](O)CN1

* O=C1C(O)=C([C@H]2CC[C@H](c3ccc(Cl)cc3)CC2)C(=O)c2ccccc21 | 1

Notebook: pull reported HepSE_hepatitis for Hepatotoxicity, entry CCN1CCN(C(=O)N[C@@H](C(=O)N[C@@H]2C(=O)N3C(C(=O)O)=C(CSc4nnnn4C)CS[C@H]23)c2ccc(O)cc2)C(=O)C1=O
1

Notebook: pull reported HepSE_hepatitis for Hepatotoxicity, entry Cc1ccc(S(=O)(=O)NC(=O)NN2CC3CCCC3C2)cc1 (stereo unspecified) [GLICLAZIDE]
1

Notebook: pull reported HepSE_hepatitis for Hepatotoxicity, entry CNS(=O)(=O)Cc1ccc2[nH]cc(CCN(C)C)c2c1
0

Notebook: pull reported HepSE_hepatitis for Hepatotoxicity, entry C[N+](C)(C)CCO.Cn1c(=O)c2[n-]cnc2n(C)c1=O
0

Notebook: pull reported HepSE_hepatitis for Hepatotoxicity, entry CC(CCc1ccccc1)NCC(O)c1ccc(O)c(C(N)=O)c1 (stereo unspecified)
1

Notebook: pull reported HepSE_hepatitis for Hepatotoxicity, entry CCn1nc(C(=O)O)c(=O)c2cc3c(cc21)OCO3
0

Notebook: pull reported HepSE_hepatitis for Hepatotoxicity, entry CNC(=O)c1c(I)c(NC(C)=O)c(I)c(C(=O)[O-])c1I.[Na+] [IOTHALAMATE SODIUM]
0

Notebook: pull reported HepSE_hepatitis for Hepatotoxicity, entry O=C1CN=C(c2ccccc2Cl)c2cc([N+](=O)[O-])ccc2N1
0

Notebook: pull reported HepSE_hepatitis for Hepatotoxicity, entry COc1cc(C)c(/C=C/C(C)=C/C=C/C(C)=C/C(=O)O)c(C)c1C
1

Notebook: pull reported HepSE_hepatitis for Hepatotoxicity, entry CN1CCC(=C2c3ccccc3C=Cc3ccccc32)CC1
1

Notebook: pull reported HepSE_hepatitis for Hepatotoxicity, entry Nc1nc(N)c2nc(-c3ccccc3)c(N)nc2n1
0

Notebook: pull reported HepSE_hepatitis for Hepatotoxicity, entry CN1CCCC(n2nc(Cc3ccc(Cl)cc3)c3ccccc3c2=O)CC1 (stereo unspecified)
0

Notebook: pull reported HepSE_hepatitis for Hepatotoxicity, entry CCCCCOc1ccc(-c2cc(-c3ccc(C(=O)N[C@H]4C[C@@H](O)[C@@H](O)NC(=O)[C@@H]5[C@@H](O)[C@@H](C)CN5C(=O)[C@H]([C@H](O)CC(N)=O)NC(=O)[C@H]([C@H](O)[C@@H](O)c5ccc(O)c(OS(=O)(=O)O)c5)NC(=O)[C@@H]5C[C@@H](O)CN5C(=O)[C@H]([C@@H](C)O)NC4=O)cc3)no2)cc1 [MICAFUNGIN] (X1-[Orn(4R-OH,5R-OH)]T[Hyp][hTyr(3S-OH,4S-OH,3'-OSO3H)][Gln(3R-OH)][Pro(3S-OH,4S-Me)]; lactam 1-C)
0

Notebook: pull reported HepSE_hepatitis for Hepatotoxicity, entry NS(=O)(=O)c1cc2c(cc1C(F)(F)F)NC(Cc1ccccc1)NS2(=O)=O (stereo unspecified) [BENDROFLUMETHIAZIDE]
1

Notebook: pull reported HepSE_hepatitis for Hepatotoxicity, entry CCCC1O[C@@H]2C[C@H]3[C@@H]4CCC5=CC(=O)C=C[C@]5(C)[C@H]4[C@@H](O)C[C@]3(C)[C@]2(C(=O)CO)O1 (stereo partly specified) [BUDESONIDE]
0
